The measured values listed here are drawn from patent US10028931B2.

# tgt: RnpA (Staphylococcus aureus, UniProt P0A0H5)
# assay-protocol: RnpA mRNA degradation activity assay
# Type: biochemical
# measurement-parameters: RnpA mRNA degradation, gel densitometry; read-out: RnpA IC50
parameter: IC50 (µM)

Example entries and their recorded answers appear below.
compound	result
CC(C)(C)c1ccc(C(=O)Nc2ccc(C(=O)NNC(=S)NC(=O)c3ccco3)cc2)cc1 [ST5524997]	300
O=C(COc1ccc(-c2ccccc2)cc1)NNC(=S)NC(=O)c1ccc(Br)o1 [ST5524465]	45

I: CC(C)c1ccc(OCC(=O)NNC(=S)NC(=O)/C=C/c2cc3ccccc3o2)cc1 [MC-190047]
II: CC(C)c1ccc(CCNc2c(NCCc3ccco3)c(=O)c2=O)cc1 [MC-190090]
Which of the two gives a bigger number for IC50: I or II ? // caller expects the label of the chosen entry II
(II: 50 µM, I: 30 µM)

###

# System: Staphylococcus aureus strain UAMS-1
# assay-protocol: Antimicrobial susceptibility testing (MIC, broth microdilution)
# Type: cell-based
# measurement-parameters: Staphylococcus aureus, UAMS1, 18 h, S. aureus UAMS-1, Mueller Hinton broth, 37° C., read-out: MIC
parameter: MIC (µg/mL)

Example entries and their recorded answers appear below.
compound	result
CC(C)c1ccc(OCC(=O)NNC(=S)NC(=O)c2ccncc2)cc1 [MC-190050]	128
Cc1ccc(C(=O)NC(=S)NNC(=O)COc2ccc(C(C)C)cc2)o1 [MC-190044]	32
CCCOc1ccccc1C(=O)NNC(=S)NC(=O)c1ccco1 [ST5528488]	4
Cc1cccc(C)c1OCC(=O)NNC(=S)NC(=O)c1ccc(-c2ccccc2)cc1 [ST5523335]	128
Cc1ccoc1C(=O)NC(=S)NNC(=O)COc1ccc(C(C)C)cc1 [MC-190043]	32

1: Cc1ccccc1C(=O)NNC(=S)NC(=O)c1ccco1 [ST5638722]
2: COc1ccc(OCC(=O)NNC(=S)NC(=O)c2ccc(Br)o2)cc1 [ST5523216]
Which of the two gives a bigger number for MIC: 1 or 2 ? // caller expects the label of the chosen entry 1
(1: 64 µg/mL, 2: 32 µg/mL)

###

# Test system: Staphylococcus aureus strain UAMS-1
# assay-protocol: Antimicrobial susceptibility testing (MIC, broth microdilution)
# Assay type: cell-based
# measurement-parameters: Staphylococcus aureus, UAMS1, 18 h, S. aureus UAMS-1, Mueller Hinton broth, 37° C., read-out: MIC
parameter: MIC (µg/mL)

smiles-string	units-label	result
CC(C)c1ccc(OCC(=O)NNC(=S)NC(=O)c2ccoc2)cc1	µg/mL	16

I: CCCOc1ccc(C(=O)NNC(=S)NC(=O)c2ccco2)cc1
II: CC(C)c1ccc(CNc2c(NCc3ccco3)c(=O)c2=O)cc1
Which of the two gives a bigger number for MIC: I or II ? // caller expects the label of the chosen entry II
(II: 128 µg/mL, I: 8 µg/mL)

###

# tgt: RnpA (Staphylococcus aureus)
# Sequence (P0A0H5 1-117): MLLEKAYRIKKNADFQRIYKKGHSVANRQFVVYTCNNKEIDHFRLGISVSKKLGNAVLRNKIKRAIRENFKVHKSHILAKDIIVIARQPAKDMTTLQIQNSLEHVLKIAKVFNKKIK
# assay-protocol: RnpA mRNA degradation activity assay
# Assay type: biochemical
# measurement-parameters: RnpA mRNA degradation, gel densitometry; read-out: RnpA IC50
parameter: IC50 (µM)

smiles-string	units-label	result
CC(C)c1ccc(CNc2c(NCc3ccco3)c(=O)c2=O)cc1	µM	25
CC(C)c1ccc(OCC(=O)NNC(=S)NC(=O)c2cc3ccccc3n2C)cc1	µM	240
Cc1ccoc1C(=O)NNC(=O)COc1ccc(C(C)C)cc1	µM	480
Cc1ccc(OCC(=O)NNC(=S)NC(=O)c2ccc(Br)o2)c(C)c1	µM	380
CC(C)c1ccc(OCC(=O)NNC(=S)NC(=O)c2cc3ccc(Cl)cc3[nH]2)cc1	µM	250
COc1ccc2[nH]c(C(=O)NC(=S)NNC(=O)COc3ccc(C(C)C)cc3)cc2c1	µM	50

a: CCCOc1ccccc1C(=O)NNC(=S)NC(=O)c1ccco1
b: CC(C)c1ccccc1OCC(=O)NNC(=S)NC(=O)/C=C/c1cccs1
From the items above, decide which of a and b has the lower IC50 reading. // caller expects the label of the chosen entry b
(b: 45 µM, a: 430 µM)
